protocol description: Caspase-3/7 induction in CHO-K1 cells by small molecules, qHTS cell viability counter screen (AID 1346979); note: % is set by controls: 0 for no effect and ±100 for the full control effect; nearly all actives have a fitted effect of over 35% in size
experimental setup: CellTiter-Fluor fluorescence, 17 h; series mostly up to 92.4 µM
Records with an inconclusive call do not appear. Calls of active or inactive are those of the source. Calls come from the whole dose curve; as a rule, active = well fitted cell-killing curve with a large enough effect in the repeat runs; inconclusive = weak or mixed curves, or effect the other way; inactive = no such curve, though single readings can be large or run the other way.
experimental endpoint: activity change, negative = cytotoxicity

# example entries with known answers
[
  {
    "molecule": "CC(=O)OC(C)(C)Cc1ccccc1",
    "activity change, negative = cytotoxicity": "inactive"
  },
  {
    "molecule": "O=C(Nc1cccc(C2=NCCN2)c1)Nc1cccc(C2=NCCN2)c1",
    "activity change, negative = cytotoxicity": "4% [at 19 µM] (inactive)"
  },
  {
    "molecule": "C=C[C@@H](C)CCC=C(C)C",
    "activity change, negative = cytotoxicity": "inactive"
  },
  {
    "molecule": "CC(C)CCC(=O)CCC(C)C",
    "activity change, negative = cytotoxicity": "inactive"
  },
  {
    "molecule": "CN(C)CCOCCN(C)CCO",
    "activity change, negative = cytotoxicity": "inactive"
  }
]

Please report activity change, negative = cytotoxicity for every entry that follows.
1. CCOC(=O)OCC/C(SC(=O)OCC)=C(\C)N(C=O)Cc1cnc(C)nc1N
2. C=CCOCC(O)CCl (stereo not drawn)
3. C[C@H](CCC(=O)O)[C@H]1CC[C@H]2[C@@H]3[C@H](O)C[C@@H]4C[C@H](O)CC[C@]4(C)[C@H]3C[C@H](O)[C@]12C
4. CC(C)CCO
5. O=C1c2ccccc2-c2ccccc21
6. C=C[Si](C)(C)O[Si](C)(C)C=C

Ans:
["inactive", "inactive", "inactive", "inactive", "inactive", "inactive"]

Please report activity change, negative = cytotoxicity for every entry that follows.
1. Nc1ccc(/C=C/c2ccc(N)cc2S(=O)(=O)O)c(S(=O)(=O)O)c1
2. O=C(c1ccc2c(c1)C(=O)OC2=O)c1ccc2c(c1)C(=O)OC2=O
3. CCCCCC1Nc2cc(C(F)(F)F)c(S(N)(=O)=O)cc2S(=O)(=O)N1 (stereo not drawn)
4. COc1ccc(/C=N/NC(=O)c2ccncc2)cc1OC

Ans:
1. 8.5% [at 0.349 µM] (inactive)
2. inactive
3. inactive
4. inactive

Please report activity change, negative = cytotoxicity for every entry that follows.
1. CCC(=O)OCCC(C)CCC=C(C)C (stereo not drawn)
2. O=C(O)Cc1cccc(-c2cc(CCCCCCc3ccc(O[C@H]4O[C@H](CO)[C@@H](O)[C@H](O)[C@@H]4O)c(-c4cccc(CC(=O)O)c4)c3)ccc2O[C@H]2O[C@H](CO)[C@@H](O)[C@H](O)[C@@H]2O)c1
3. CCC(C)(CCC(C)C)C(=O)[O-].CCC(C)(CCC(C)C)C(=O)[O-].[Zn+2] (stereo not drawn)
4. CC(=O)/C=C/c1ccco1
5. CN[C@@H]1[C@@H](O)[C@@H](O[C@@H]2[C@H](O)[C@H](O[C@H]3OC(CN)=CC[C@H]3N)[C@@H](N)C[C@H]2N)OCC1(C)O (stereo partly drawn)
6. Cc1ccccc1OCC1CO1 (stereo not drawn)
7. C=CCCCCCCCCCCC

Ans:
["inactive", "2.17% [at 0.349 µM] (inactive)", "inactive", "inactive", "inactive", "inactive", "-0.387% [at 8.39 µM] (inactive)"]

Lab note: C1CCN2C[C@@H]3C[C@@H](CN4CCCC[C@@H]34)[C@H]2C1 gave activity change, negative = cytotoxicity of inactive
